# experiment.notes: Quantitative high throughput screen for delayed death inhibitors of the malarial parasite plastid, 48 hour incubation (AID 488752); also: nearly all actives have a fitted effect of over 65% in size; also: potency is read from the fitted curve at half-maximal effect
# protocol.conditions: Plasmodium falciparum growth; series mostly up to 28.7 µM
Inconclusive results are not listed. Calls of active or inactive are those of the source. Calls follow the shape of the dose curve; as a rule, active = well fitted inhibition curve with a large enough effect; inconclusive = small, poorly fitted or top-dose-only effect, or effect the other way; inactive = flat fitted curve, though single readings scatter.
assay.metric: Potency

Worked set:
Oc1ccc(C2CNCc3sccc32)cc1O (configuration not stated) ... inactive
COc1ccccc1N1CCN(CCCCNS(=O)(=O)c2cccc3c(N(C)C)cccc23)CC1 ... inactive
Nc1ccn([C@@H]2O[C@H](CO)[C@@H](O)[C@@H]2O)c(=O)n1 ... inactive
CCCCCCCCCCCCCCCC(=O)OC(CC(=O)O)C[N+](C)(C)C (configuration not stated) ... inactive
N.N.O=C(O)C1(C(=O)O)CCC1.[Pt] ... inactive

Please report Potency for every entry that follows.
1. COC1=C(OC)C(=O)c2ccccc2C1=O
2. CC(=O)N[C@H](C(=O)O)C(C)(C)SN=O
3. COC(=O)c1c(C)[nH]c(C)c1C(=O)c1ccccc1Cc1ccccc1
4. C=C[C@@H]1CN2CC[C@@H]1C[C@H]2[C@H](O)c1ccnc2ccc(OC)cc12
5. CC(COc1ccc(/C=C/c2ccccc2)cc1)[N+](C)(C)C (configuration not stated)
6. NCCCCCCCCCCN
7. NO
8. CN[C@H](CC(C)C)C(=O)N[C@H]1C(=O)N[C@@H](CC(N)=O)C(=O)N[C@H]2C(=O)N[C@H]3C(=O)N[C@H](C(=O)N[C@H](C(=O)O)c4cc(O)cc(O)c4-c4cc3ccc4O)[C@H](O)c3ccc(c(Cl)c3)Oc3cc2cc(c3O[C@@H]2O[C@H](CO)[C@@H](O)[C@H](O)[C@H]2O[C@H]2C[C@](C)(N)[C@H](O)[C@H](C)O2)Oc2ccc(cc2Cl)[C@H]1O

### Response
1: inactive; 2: inactive; 3: 9.28 µM (active); 4: 0.0928 µM (active); 5: 3.29 µM (active); 6: inactive; 7: inactive; 8: inactive

Batch of 4 compounds: report Potency for each.
1. CN(C)c1nc(N)c(C(=O)N=C(N)N)nc1Cl
2. OC[C@H]1O[C@@H](n2cnc3c(NC4CCCCC4)ncnc32)[C@H](O)[C@@H]1O
3. CCCCC/C=C\CC(O)/C=C/c1cccc(CC(O)CCCCO)n1 (configuration not stated)
4. Brc1c(Br)c(Br)c2n[nH]nc2c1Br

### Response
["inactive", "inactive", "inactive", "inactive"]

====

# experiment.notes: qHTS assay for small molecule activators of the p53 signaling pathway (AID 651743); also: % of control where 0% means no effect
# protocol.conditions: HCT-116 p53RE-bla, beta-lactamase FRET ratio, 16 h; stronger effect = higher value
Results filed as inconclusive are left out.
Kindly supply the reported activation values for the records listed here.
Answers are plain numbers, in %.

O=C(Nc1ccccc1)c1cc([N+](=O)[O-])ccc1Cl ... 4.29
O=C1CN(/N=C/c2ccc([N+](=O)[O-])o2)C(=O)N1 ... 5.55
O=C(O)/C=C\C(=O)O ... -1.58

For every listed record, write down its activation.
1. CCCCCCCCCCCCCCCC(=O)OC(C)C
2. O=C(O)c1ccccc1Nc1cccc(C(F)(F)F)c1
3. CN(C)CCC(c1ccc(Cl)cc1)c1ccccn1 (configuration not stated)
4. NCCO

### Response
1. -1.99
2. 3.61
3. -2.38
4. -4.3

====

# Test system: 7G8
# experiment.notes: qHTS profiling for inhibitors of Plasmodium falciparum proliferation (AID 504749); also: nearly all actives have a fitted effect of over 60% in size
# protocol.conditions: P. falciparum in erythrocytes, SYBR Green DNA, 72 h; series mostly up to 28.7 µM
Inconclusive results are not listed. Active and inactive are the calls of the source. Calls follow the shape of the dose curve; as a rule, active = well fitted inhibition curve with a large enough effect; inconclusive = small, poorly fitted or top-dose-only effect; inactive = flat fitted curve, though single readings scatter.
Response enum: y = active, n = inactive

Worked examples follow.
CCCSc1ccc2nc(NC(=O)OC)[nH]c2c1 ... n
CCOc1ccc2nc(S(N)(=O)=O)sc2c1 ... n
COc1ccc(-c2cc(=S)ss2)cc1 ... y
C=CC(N)CCC(=O)O (stereo not given) ... n

Consider now this further molecule.
### Prompt Check the results log: what was the call for O=C(/C=C/c1ccccc1)NCCO ?
### Response n

====

# Test system: C33A
# experiment.notes: Primary qHTS to identify gynecologic anti-cancer compounds using libraries of approved drugs and bioactive compounds (AID 1345084); also: nearly all actives have a fitted effect of over 55% in size
# protocol.conditions: Gynecologic cancer cell panel viability, ATPlite luminescence, 48 h; series mostly up to 57.5 µM
Records with an inconclusive call do not appear. Activity calls are given as the source filed them. The call rests on the fitted dose curve; in most records, active means well fitted cell-killing curve with a large enough effect; inconclusive means small, poorly fitted or top-dose-only effect, or effect the other way; inactive means flat fitted curve, though single readings scatter.
Use one of these outcomes when replying: active, inactive

Worked examples follow.
C/C(=N\O)c1ccc(OCC(=O)N2CCCCC2)cc1 ... inactive
Cc1c(Nc2ncccc2C(=O)O)cccc1C(F)(F)F ... inactive
CC1(C)[C@@H](O)CC[C@]2(C)[C@H]3C(=O)C=C4[C@@H]5C[C@@](C)(C(=O)O)CC[C@]5(C)CC[C@@]4(C)[C@]3(C)CC[C@@H]12 ... inactive
CC1(C)[C@@H](O[C@H]2O[C@H](C(=O)O)[C@@H](O)[C@H](O)[C@H]2O[C@@H]2O[C@H](C(=O)O)[C@@H](O)[C@H](O)[C@H]2O)CC[C@]2(C)[C@H]3C(=O)C=C4[C@@H]5C[C@@](C)(C(=O)O)CC[C@]5(C)CC[C@@]4(C)[C@]3(C)CC[C@@H]12 ... inactive
CO[C@@]1(NC(=O)Cc2cccs2)C(=O)N2C(C(=O)O)=C(COC(N)=O)CS[C@@H]21 ... inactive
CCOc1ccc2nc(S(N)(=O)=O)sc2c1 ... inactive
CCNC(=O)[C@H]1O[C@@H](n2cnc3c(N)nc(NCCc4ccc(CCC(=O)O)cc4)nc32)[C@H](O)[C@@H]1O ... inactive
[O-][n+]1ccccc1SSc1cccc[n+]1[O-] ... active

### Prompt Recorded test outcome, item CC1(C)S[C@@H]2[C@H](NC(=O)[C@H](N)c3ccccc3)C(=O)N2[C@H]1C(=O)O
### Response inactive

### Prompt Another: Nc1ccc(O)c(C(=O)O)c1
### Response inactive

### Prompt Please give the result for CC1(C)S[C@@H]2[C@H](NC(=O)[C@H](NC(=O)N3CCN(S(C)(=O)=O)C3=O)c3ccccc3)C(=O)N2[C@H]1C(=O)O too.
### Response inactive

### Prompt Another compound to check: CN(C)CCn1nnnc1SCC1=C(C(=O)O)N2C(=O)[C@@H](NC(=O)Cc3csc(N)n3)[C@H]2SC1
### Response inactive

### Prompt Param item: COc1cc(CNC(=O)CCCC/C=C/C(C)C)ccc1O
### Response inactive

### Prompt Also check C[C@H](O)[C@H](O)[C@H]1CNc2nc(N)[nH]c(=O)c2N1
### Response inactive

### Prompt Could you do the same for O=C(Nc1ccc(C(=O)O)c(O)c1)c1ccccc1 , please?
### Response inactive

### Prompt How about O=c1[nH]c2ccccc2n1CCCN1CCN(C(c2ccccc2)c2ccccc2)CC1 ?
### Response inactive

### Prompt Entry to check: CCCC(=O)OC[C@@H](OC(=O)CCC)[C@@H](OC(=O)CCC)[C@H](Cn1c2nc(=O)[nH]c(=O)c-2nc2cc(C)c(C)cc21)OC(=O)CCC
### Response inactive

### Prompt Cool, now Oc1c(Br)cc(Br)c2cccnc12
### Response inactive

### Prompt Here is the next compound: CC(=O)O[C@H]1C[C@@]2(C)[C@@H](C[C@@H](O)[C@H]3[C@@]4(C)CC[C@@H](O)[C@@H](C)[C@@H]4CC[C@@]32C)/C1=C(\CCC=C(C)C)C(=O)O
### Response inactive

### Prompt Record: C#CC1(O)CC[C@H]2[C@@H]3CCC4=CCCC[C@@H]4[C@H]3CC[C@@]21C (stereo partly specified)
### Response inactive

### Prompt Another compound to look at: Nc1ccc(O)c([N+](=O)[O-])c1
### Response inactive

### Prompt Quick one: Clc1ccccc1-c1nc(-c2ccncc2)no1
### Response inactive

### Prompt Then Cc1[nH]cnc1CN1CCc2c(c3ccccc3n2C)C1=O ?
### Response inactive

### Prompt Try this compound next: COC(=O)C1=C(C)NC(C)=C(C(=O)OCC(C)C)C1c1ccccc1[N+](=O)[O-] (stereo unspecified)
### Response inactive

### Prompt Quick one: Nc1ccc([N+](=O)[O-])cc1O
### Response inactive

### Prompt Moving on to the next compound: CC(C(=O)O)c1ccc2c(c1)[nH]c1ccc(Cl)cc12 (stereo unspecified)
### Response inactive

### Prompt What about CCCCCCCCCCCC(=O)[O][Sn]([CH2]CCC)([CH2]CCC)[O]C(=O)CCCCCCCCCCC ?
### Response inactive

### Prompt Now this one: COc1ccc(-c2cc(=S)ss2)cc1
### Response inactive

### Prompt What do we get for Cc1cc(O)c2ccccc2c1O ?
### Response inactive

### Prompt Now this one: Nc1cc(-c2ccncc2)c[nH]c1=O
### Response inactive

### Prompt Record: O=C(O)/C=C\C(=O)O
### Response inactive

Data provenance: PubChem BioAssay (NCATS)
